Tested on: Vero E6 infected with SARS-CoV-2
experiment: inhibition of SARS-CoV-2 cytopathic effect; higher = more antiviral protection, active = above 15
runParameters: 1 nM; 48 h
experimentalEndpoint: inhibition of SARS-CoV-2 cytopathic effect (%)

recordSmiles	valueObserved
Cc1ccc(-c2nc3ccc(C)cn3c2CC(=O)N(C)C)cc1	0.77
CC(=O)Nc1c(I)cc(I)c(C(=O)O)c1I	-0.01
Cc1cc(C)c(CNC(=O)c2cc(-c3ccc(CN4CCOCC4)cc3)cc3c2cnn3C2CCCC2)c(=O)[nH]1	-0.23
COC(=O)[C@H](NC(=O)c1cc(-c2ccccc2)nc2ccccc12)c1ccccc1	2.67

----------
System: Vero E6 infected with SARS-CoV-2
experiment: inhibition of SARS-CoV-2 cytopathic effect; higher = more antiviral protection, active = above 15
runParameters: 833.33 nM; 48 h
experimentalEndpoint: inhibition of SARS-CoV-2 cytopathic effect

molecule	valueObserved
CCn1nc(C)c2c1C(c1ccccc1)=NCC(=O)N2 [ripazepam]	-0.98% (inactive)
Cc1ccc(Nc2c(F)cccc2Cl)c(CC(=O)O)c1 [lumiracoxib]	0.6% (inactive)
O=P1(N(CCCl)CCCl)NCCCO1 (configuration not stated) [cyclophosphamide]	-1.65% (inactive)
C[C@@H]1c2ccccc2CN1CC1=NCCN1 (racemic)	1.02% (inactive)
OC[C@H]1O[C@@H](n2cnc3c(NC4CCCC4)nc(Cl)nc32)[C@H](O)[C@@H]1O [2-chloro-N6-cyclopentyladenosine]	2.35% (inactive)
CCC(=O)OCC(=O)[C@@]1(OC(=O)CC)[C@@H](C)C[C@H]2[C@@H]3CCC4=CC(=O)C=C[C@]4(C)[C@@]3(F)[C@@H](O)C[C@@]21C	0.59% (inactive)
CCCC(=O)O[C@]1(C(=O)CO)CC[C@H]2[C@@H]3CCC4=CC(=O)CC[C@]4(C)[C@H]3[C@@H](O)C[C@@]21C [hydrocortisone-butyrate]	5.42% (inactive)

----------
Test system: Vero E6 infected with SARS-CoV-2
experiment: morphology score (similarity to uninfected cells); higher = more like uninfected cells
runParameters: 24 h
Use t when the recorded morphology score is no lower than 0.05; use f when it is lower.

compound	categoryLabel
C[C@@H](Oc1cc(-n2cnc3ccc(CN4CCN(C)CC4)cc32)sc1C(N)=O)c1ccccc1C(F)(F)F (0.833333 µM)	t
N#CC[C@@H](C1CCCC1)n1cc(-c2ncnc3[nH]ccc23)cn1 [ruxolitinib-(S)] (10 µM)	t
O=c1ccc2ccc(O)c(O)c2o1 [daphnetin] (10 µM)	f
C=C(C)[C@@H]1[C@H]2OC(=O)[C@@H]1[C@]1(O)C[C@H]3O[C@]34C(=O)O[C@H]2[C@]14C [picrotoxinin] (10 µM)	t
O=C(O)C[C@H](O)C[C@H](O)/C=C/c1c(C2CC2)nc2ccccc2c1-c1ccc(F)cc1 [pitavastatin] (10 µM)	f
Oc1cc(O)cc(/C=C/c2ccc(O)c(O)c2)c1 [piceatannol] (10 µM)	f
O=C(NNc1nc2cc(F)ccc2n2cccc12)c1cnccn1 (10 µM)	t
CCCCCCOc1nsnc1C1=CCCN(C)C1 [xanomeline] (10 µM)	t
c1ccc([C@@H]2C[C@H]2NC2CCNCC2)cc1 (10 µM)	f
OCCn1cc(-c2ccc3c(c2)CC/C3=N\O)c(-c2ccncc2)n1 (10 µM)	t
CCCCCOc1ccc(-c2cc(-c3ccc(C(=O)N[C@H]4C[C@@H](O)[C@@H](O)NC(=O)[C@@H]5[C@@H](O)[C@@H](C)CN5C(=O)[C@H]([C@H](O)CC(N)=O)NC(=O)[C@H]([C@H](O)[C@@H](O)c5ccc(O)c(OS(=O)(=O)O)c5)NC(=O)[C@@H]5C[C@@H](O)CN5C(=O)[C@H]([C@@H](C)O)NC4=O)cc3)no2)cc1 [micafungin] (10 µM)	t

----------
Tested on: Vero E6 infected with SARS-CoV-2
experiment: SARS-CoV-2 infection rate relative to infected DMSO; higher = more infection, active = 60 or less
runParameters: 24 h
Classes used: t for active, f for inactive

compound	categoryLabel
Cc1ccc2c(c1)[C@]13CCCC[C@@H]1[C@H](C2)N(C)CC3 [dimemorfan] (10 µM)	f
Clc1ccc(C(c2ccc(Cl)cc2)C(Cl)(Cl)Cl)cc1 (10 µM)	f
NCC(=O)N1C[C@H](NC(=O)c2ccccc2)C[C@H]1C(=O)O [danegaptide] (10 µM)	f
Cc1cnc(NC(=O)Nc2cc(Br)c(C)cc2OC[C@@H]2CNCCO2)cn1 (0.833333 µM)	f
CCCCCCCC/C=C/CCCCCCCC(=O)OC[C@H]1O[C@@H](n2ccc(N)nc2=O)C(F)(F)[C@@H]1O [gemcitabine-elaidate] (0.833333 µM)	f
CN(C)CCCN1c2ccccc2Sc2ccc(C(F)(F)F)cc21 [triflupromazine] (10 µM)	t
CCC(=O)c1cc(-c2ccc(Cl)cc2)n(-c2ccc(S(N)(=O)=O)cc2)c1C (10 µM)	f
O=C1COc2nccc(-c3ccccc3F)c2CN1Cc1cc(C(F)(F)F)cc(C(F)(F)F)c1 (10 µM)	f
CCOc1cc2ncc(C#N)c(Nc3ccc(OCc4cccc(F)c4)c(Cl)c3)c2cc1NC(=O)/C=C/CN(C)C (10 µM)	f
CC(=O)Oc1ccccc1C(=O)Oc1ccccc1C(=O)O [acetylsalicylsalicylic-acid] (10 µM)	f
COc1cc(Br)c(S(=O)(=O)Nc2ccc(C(F)(F)F)c(O[C@@H]3CCN(C)C3)c2)cc1OC (10 µM)	f
Cc1c(N)nc([C@H](CC(N)=O)NC[C@H](N)C(N)=O)nc1C(=O)N[C@H](C(=O)N[C@H](C)[C@@H](O)[C@H](C)C(=O)N[C@H](C(=O)NCCc1nc(-c2nc(C(=O)NCCC[S+](C)C)cs2)cs1)[C@@H](C)O)[C@@H](OC1OC(CO)C(O)C(O)C1OC1OC(CO)C(O)C(OC(N)=O)C1O)c1cnc[nH]1 (some centres undefined) [bleomycin] (10 µM)	f
CC(=O)OCC1=C(C(=O)O)N2C(=O)[C@@H](NC(=O)Cc3cccs3)[C@H]2SC1 [cephalothin] (10 µM)	f
C[N+]1(C)CCC(=C(c2ccccc2)c2ccccc2)CC1 [diphemanil] (10 µM)	f
COc1cc(/C=C2\CCC/C(=C\c3ccc(O)c(OC)c3)C2=O)ccc1O [cyclovalone] (10 µM)	f
Oc1ccc(/C=C/c2cc(O)cc(O)c2)cc1 [resveratrol] (10 µM)	f
C[S+](CC[C@H](N)C(=O)O)C[C@H]1O[C@@H](n2cnc3c(N)ncnc32)[C@H](O)[C@@H]1O (some centres undefined) [ademetionine] (10 µM)	f
CNc1nc(C)nc(N[C@H]2CCC[C@@H](C(=O)NCc3ccc(C#N)cc3C(F)(F)F)C2)n1 (10 µM)	f
CCn1cnc(C(=O)NC)c1C(=O)NC [ethimizol] (10 µM)	f

----------
System: Vero E6 infected with SARS-CoV-2
experiment: inhibition of SARS-CoV-2 cytopathic effect; higher = more antiviral protection, active = above 15
runParameters: 100 nM; 48 h
experimentalEndpoint: inhibition of SARS-CoV-2 cytopathic effect (%)

compound	assaySystem	valueObserved
CN(C)C(=S)SSC(=S)N(C)C	Vero E6 infected with SARS-CoV-2	-8.77
C[Se]C[C@H](N)C(=O)O	Vero E6 infected with SARS-CoV-2	0.23
COC(=O)C[C@](O)(CCC(C)(C)O)C(=O)O[C@@H]1C(OC)=C[C@]23CCCN2CCc2cc4c(cc2[C@H]13)OCO4	Vero E6 infected with SARS-CoV-2	-10.7
CC(=O)C(=Cc1cc(O)c(O)c([N+](=O)[O-])c1)C(C)=O	Vero E6 infected with SARS-CoV-2	1.47
Nc1c(-c2cccc(C(F)(F)F)c2)nsc1C(=O)O	Vero E6 infected with SARS-CoV-2	-1.28
c1ccc(N2CCN(CCCOc3ccc4c(c3)OCO4)CC2)cc1	Vero E6 infected with SARS-CoV-2	-4.95
CC(C)NC(=N)NC(=N)Nc1ccc(Cl)cc1	Vero E6 infected with SARS-CoV-2	-0.95
CCCSc1ccc2[nH]c(NC(=O)OC)nc2c1	Vero E6 infected with SARS-CoV-2	-0.24
C[n+]1ccccc1C=NO	Vero E6 infected with SARS-CoV-2	0.14
O=C(Oc1ccccc1C(=O)O)c1ccccc1O	Vero E6 infected with SARS-CoV-2	-2.49
C[C@]12COC(=O)C[C@@H]1CC[C@@H]1[C@@H]2CC[C@@]2(C)[C@H]1CC[C@]2(C)O	Vero E6 infected with SARS-CoV-2	-0.27
Cc1ccccc1OCC(O)CO (stereo not drawn)	Vero E6 infected with SARS-CoV-2	0.3
COc1cc2c(cc1OCCCN1CCCC1)N=C(N)C21CCC1	Vero E6 infected with SARS-CoV-2	0.57
C=CC(=O)Nc1cc(Nc2nccc(-c3c[nH]c4ccccc34)n2)c(OC)cc1N(C)CCN(C)C	Vero E6 infected with SARS-CoV-2	-10.5
COc1c(O[C@@H]2O[C@H](CO)[C@@H](O)[C@H](O)[C@H]2O)cc2c(c1OC)-c1ccc(SC)c(=O)cc1[C@@H](NC(C)=O)CC2 [thiocolchicoside]	Vero E6 infected with SARS-CoV-2	-0.7
O=CN1CCC(C(=O)NCCN2CCC(=C3c4ccccc4C=Cc4ccccc43)CC2)CC1	Vero E6 infected with SARS-CoV-2	0.42
O=C(O)CCCCCCCC(=O)O	Vero E6 infected with SARS-CoV-2	-0.06
CCCn1c(=O)[nH]c2nc(-c3ccc(S(=O)(=O)O)cc3)[nH]c2c1=O	Vero E6 infected with SARS-CoV-2	-0.83
O=[N+]([O-])O[C@H]1CO[C@H]2[C@@H]1OC[C@H]2O[N+](=O)[O-] [isosorbide-dinitrate]	Vero E6 infected with SARS-CoV-2	2.2
C#C[C@]1(O)CC[C@H]2[C@@H]3CCC4=CC(=O)CC[C@@H]4[C@H]3CC[C@@]21CC	Vero E6 infected with SARS-CoV-2	2.25
CCN(CC)CCOC(=O)c1cc(Cl)c(N)cc1OC	Vero E6 infected with SARS-CoV-2	1.89
Cc1cc(O)c(-c2ccc([C@@H](C)CN)cc2)c2c1[nH]c(=O)c1sccc12	Vero E6 infected with SARS-CoV-2	-0.22
COC(=O)Nc1nc2cc(C(=O)c3ccccc3)ccc2[nH]1	Vero E6 infected with SARS-CoV-2	-0.07

Source listed as the supplement of paper PMC13380429.
